MEASUREMENT_TARGET: T1, Rb^P R556Q (human, UniProt P06400 380-788, R556Q)
T1 construct: also called variant 30
T1 sequence (looked up): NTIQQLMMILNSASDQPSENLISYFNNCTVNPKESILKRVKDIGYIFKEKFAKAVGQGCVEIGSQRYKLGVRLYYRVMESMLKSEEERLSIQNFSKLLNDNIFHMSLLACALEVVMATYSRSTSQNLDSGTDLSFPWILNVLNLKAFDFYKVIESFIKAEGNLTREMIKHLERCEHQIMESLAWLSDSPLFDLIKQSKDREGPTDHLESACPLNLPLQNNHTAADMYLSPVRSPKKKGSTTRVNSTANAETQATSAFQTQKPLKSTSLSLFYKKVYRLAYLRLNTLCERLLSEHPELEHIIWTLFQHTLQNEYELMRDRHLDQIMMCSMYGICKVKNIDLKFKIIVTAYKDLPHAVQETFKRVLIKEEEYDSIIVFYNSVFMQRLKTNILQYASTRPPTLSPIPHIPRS
ASSAY_PROTOCOL: fluorescence polarisation; 25 °C; unlabeled Rb^P titrated against 1.5 nM TMR-E2F1^TD or 7.5 nM TMR-E7^LxCxE; 25 mM Tris pH 8.0, 200 mM NaCl, 1 mM DTT, 0.1% Tween-20; 2 min incubation; quadratic fit; apparent Kd for the variants, Kd for WT
EXPERIMENTAL_PARAMETERS: both partners purified
No end group written: not given here. TMR = tetramethyl rhodamine dye
MEASURED_METRIC: Kd

{TMR}-GEGIRDLFDCDFGDLTPLD (also called E2F^TD; source: synthetic peptide, bought: GenScript) [TMR-E2F1^TD, peptide of the E2F1 transactivation domain] ... 22 nM
DLYCYEQLN (also: TMR label, position not given here, source: synthetic peptide, bought: GenScript) [TMR-E7^LxCxE, LxCxE peptide of the E7 oncoprotein from HPV] ... 5 nM

Just for reference, paper PMC11931385 is where these values come from.
